meta.source: PubChem BioAssay AID1159580

test protocol: chemical genetic growth profiling, strain panel (AID 1159580);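 note: tested at 20 µM; growth read once vehicle control cultures reached saturation at 30 °C; 1 = growth at the plate median or of vehicle wells; lower values mean less growth of the strain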
settings: S. cerevisiae deletion strains, growth OD, locus YIL147C, strain SLN1, active compounds read low
In all, about 5,500 compounds went through this assay and about 2,000 (36%) were called active. Not shown: some 18% with an inconclusive outcome. This is one part of the list.
observed property: normalized growth

compound	recorded result
OC(c1ccc(C(F)(F)F)cc1)c1cccc(C(F)(F)F)c1 (stereo not drawn)	0.971 (inactive)
O=C(Nc1cccc(C(F)(F)F)c1)Oc1ccc(F)cc1Cl	0.975 (inactive)
N/C(=N/OC(=O)c1ccc(Cl)cc1)c1ccc(F)cc1F	0.91 (inactive)
O=C(CO/N=C\c1ccc(Cl)cc1Cl)NNC(=S)Nc1cc(Cl)ccc1Cl	1 (inactive)
COc1ccccc1C(C[N+](=O)[O-])c1c(N)n(C)c(=O)n(C)c1=O (stereo not drawn)	0.953 (inactive)
CSc1cccc(N2C(=O)CC(c3c(Cl)cccc3Cl)CC2=O)c1	0.996 (inactive)
O=C(CCSc1cccs1)Nc1cccc(C(F)(F)F)c1	0.927 (inactive)
Nc1cc(-c2ccc(OC(F)(F)F)cc2)nn1-c1ccc(Cl)c(Cl)c1	1 (inactive)

---

test protocol: chemical genetic growth profiling, strain panel (AID 1159580)
settings: S. cerevisiae deletion strains, growth OD, locus YAL013W, strain DEP1
The whole screen tested about 5,500 compounds, of which about 2,000 (36%) were called active. Another 18% or so got no clear call; they are omitted. Rule as the data show it: active = normalized growth mostly below about 0.91 (no sharp cut-off); inconclusive = no clear call, values can overlap the other calls; inactive = mostly above about 0.92. This is one part of the list.
Outcome codes: active, inactive

molecule	discrete label
CC1=C(/C=C/C(C)=C/C=C/C(C)=C\C(=O)O)C(C)(C)CCC1	inactive
CC1=C(/C=C/C(C)=C/C=C/C(C)=C/C(=O)Nc2ccc(O)cc2)C(C)(C)CCC1	inactive
CCOC(=O)CCCCCCCCCCCCC1C=CCC1 (stereo not given)	active
CC1(C)C2CC(=O)O[C@@]3(C)C4=CC(=O)O[C@@H](c5ccoc5)[C@]4(C)CCC3[C@@]2(C)C=C[C@H]1O (stereo not given in full)	inactive
C=CCN1CC[C@]23c4c5ccc(O)c4OC2C(=O)CC[C@@]3(O)[C@H]1C5 (stereo not given in full)	inactive

---

test protocol: chemical genetic growth profiling, strain panel (AID 1159580)
settings: S. cerevisiae deletion strains, growth OD, locus YDR335W, strain msn5, active compounds read low
Screen size: about 5,500 compounds; about 2,000 (36%) were called active. Roughly 18% stayed inconclusive and do not appear here. This is one part of the list.

molecule	normalized growth
CC(=O)O[C@H]1CC[C@@]2(C)C(=CCC3C2CC[C@@]2(C)C3CC[C@@H]2C(C)CCCC(C)C)C1 (some centres undefined)	1
CC1=CC(=O)CC(C)(C)C1(O)/C=C/C(C)=C\C(=O)O (centres undefined)	1.03
CC1=C(/C=C/C(C)=C/C=C/C(C)=C\C(=O)O)C(C)(C)CCC1	0.987
CO[C@@H]1[C@@H](O[C@@H]2O[C@H](C)[C@@H](O[C@H]3C[C@@](C)(O)[C@H](O)[C@H](C)O3)[C@H](N(C)C)[C@H]2O)[C@@H](CC=O)C[C@@H](C)[C@@H](O[C@H]2CC[C@H](N(C)C)[C@@H](C)O2)/C=C/C=C/C[C@H](C)OC(=O)C[C@H]1O	1.01
CC1=C(/C=C/C(C)=C/C=C/C(C)=C/CO)C(C)(C)CCC1	1.02
CC1=C(/C=C/C(C)=C/C=C/C(C)=C/C=C/C=C(C)/C=C/C=C(C)/C=C/C2=C(C)CCCC2(C)C)C(C)(C)CCC1	0.997
CC(=O)O[C@H]1CC[C@@]2(C)C(=CCC3C2CC[C@]2(C)C(=O)CCC32)C1 (some centres undefined)	0.937
O=C(O)CNCP(=O)(O)O	1.02
O=C(O)P(=O)(O)O	0.991
CC12CCC3C(CC=C4CC(O)CCC43C)C1CCC2=O (centres undefined)	0.961
O=C(NC(=O)c1c(F)cccc1F)Nc1cc(Cl)c(OC(F)(F)C(F)C(F)(F)F)cc1Cl (centres undefined)	0.99
CC1(C)C2CC(=O)O[C@@]3(C)C4=CC(=O)O[C@@H](c5ccoc5)[C@]4(C)CCC3[C@@]2(C)C=C[C@H]1O (some centres undefined)	0.979
CN(C)CCCO[C@H]1[C@@H](C(O)CO)OC2OC(C)(C)O[C@@H]21 (some centres undefined)	0.981
O=C(O)c1cc(=O)c2c(OCC(O)COc3cccc4oc(C(=O)O)cc(=O)c34)cccc2o1	0.967
c1cc2c(cc1[C@H]1OC[C@H]3[C@@H]1CO[C@H]3c1ccc3c(c1)OCO3)OCO2	0.934
NC(=O)c1ccc(N)nc1	1
C[C@]12CCC3c4ccc(OS(=O)(=O)O)cc4CCC3C1CCC2=O (some centres undefined)	1
C#C[C@]1(O)CCC2C3CCc4cc(O)ccc4C3CC[C@@]21C (some centres undefined)	0.959
CCOC(=O)C(C)(N)Cc1ccc(O)c(O)c1 (centres undefined)	0.971

---

test protocol: chemical genetic growth profiling, strain panel (AID 1159580);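 note: tested at 20 µM; growth read once vehicle control cultures reached saturation at 30 °C; 1 = growth at the plate median or of vehicle wells; lower values mean less growth of the strain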
settings: S. cerevisiae deletion strains, growth OD, locus YOR144C, strain elg1, active compounds read low
Hit rate of the full screen: of about 5,500 compounds, about 2,000 (36%) were called active. Inconclusive results (about 18%) are left out. The list shows a part of the results.

compound	normalized growth
Nc1nc(N)c2nc(CNc3ccc(C(=O)NC(CCC(=O)O)C(=O)O)cc3)cnc2n1 (centres undefined)	1
Nc1nc2c(c(=O)[nH]1)N(C=O)C(CNc1ccc(C(=O)N[C@@H](CCC(=O)O)C(=O)O)cc1)CN2 (some centres undefined)	0.992
CC(=O)O[C@H]1CC[C@@]2(C)C(=CCC3C2CC[C@]2(C)C(=O)CCC32)C1 (some centres undefined)	0.989
CC(COc1ccccc1)N(CCCl)Cc1ccccc1 (centres undefined)	1.02
CC[C@@H]1[C@@H](O)N2C3C[C@H]1C1C(O)[C@]4(C[C@@H]12)c1ccccc1N(C)[C@@H]34 (some centres undefined)	0.962
COc1ccc(C[C@H](N)C(=O)N[C@@H]2[C@@H](CO)OC(n3cnc4c(N(C)C)ncnc43)[C@@H]2O)cc1 (some centres undefined)	1.01
Nc1nc2ncc(CNc3ccc(C(=O)N[C@@H](CCC(=O)O)C(=O)O)cc3)nc2c(=O)[nH]1	0.987
CN(Cc1cnc2nc(N)nc(N)c2n1)c1ccc(C(=O)NC(CCC(=O)O)C(=O)O)cc1 (centres undefined)	0.975
CC12CCC3C(CC=C4CC(O)CCC43C)C1CCC2=O (centres undefined)	0.987

---

test protocol: chemical genetic growth profiling, strain panel (AID 1159580);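 note: tested at 20 µM; growth read once vehicle control cultures reached saturation at 30 °C; 1 = growth at the plate median or of vehicle wells; lower values mean less growth of the strain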
settings: S. cerevisiae deletion strains, growth OD, locus YHR027C, strain rpn1, active compounds read low
Among all 5,500 compounds or so, about 2,000 (36%) were called active. Not shown: some 18% with an inconclusive outcome. The list shows a part of the results.

compound	normalized growth
COc1ccc(/C=C/C(=O)O)cc1OC	0.992
COc1cc(/C=C/C(=O)O)cc(OC)c1OC	1
NCc1ccc(S(N)(=O)=O)cc1	1.02
COc1ccc(C=CC(=O)c2ccc(O)cc2O)cc1OC	0.982
COc1ccc(/C=C/C(=O)c2cc(O)ccc2O)cc1	0.661
COc1ccc(/C=C/C(=O)c2ccc(O)cc2O)cc1	0.59
COc1cc(/C=C/C(=O)O)ccc1O	1
c1ccc(-c2ccc(C(c3ccccc3)n3ccnc3)cc2)cc1 (stereo not drawn)	0.0776

---

test protocol: chemical genetic growth profiling, strain panel (AID 1159580);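 note: tested at 20 µM; growth read once vehicle control cultures reached saturation at 30 °C; 1 = growth at the plate median or of vehicle wells; lower values mean less growth of the strain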
settings: S. cerevisiae deletion strains, growth OD, locus YKL068W, active compounds read low
The whole screen tested about 5,500 compounds, of which about 2,000 (36%) were called active. Not shown: some 18% with an inconclusive outcome. The list shows a part of the results.

compound	normalized growth
O=C(O)CCC(=O)c1ccc(-c2ccccc2)cc1	1 (inactive)
COS(C)(=O)=O	1.01 (inactive)
CC(=O)O[C@H]1C[C@@H](OC(C)=O)C(C)(C)C2C[C@@H](OC(C)=O)[C@]3(C)C(CC[C@@]4(C)[C@H](c5ccoc5)C(=O)[C@H]5O[C@]543)[C@]21C (stereo not given in full)	1.02 (inactive)
CC(COc1ccccc1)N(CCCl)Cc1ccccc1 (stereo not given)	1.02 (inactive)
Cc1ccc(C(C)C)cc2c(C)ccc1-2	1 (inactive)
CCC(CCC(C)C1CCC2C3CC=C4C[C@@H](OC(C)=O)CC[C@]4(C)C3CC[C@]12C)C(C)C (stereo not given in full)	0.987 (inactive)
Nc1nc2ncc(CNc3ccc(C(=O)N[C@@H](CCC(=O)O)C(=O)O)cc3)nc2c(=O)[nH]1	0.98 (inactive)
COC(=O)[C@H]1[C@H]2C[C@@H]3c4[nH]c5cc(OC)ccc5c4CCN3C[C@H]2C[C@@H](OC(=O)c2cc(OC)c(OC)c(OC)c2)[C@@H]1OC	1.01 (inactive)
COc1cc(C)c2c(c1C=O)Oc1c(c(C)c(O)c3c1C(O)OC3=O)OC2=O (stereo not given)	0.983 (inactive)
C[C@H](COc1ccccc1)N[C@H](C)[C@H](O)c1ccc(O)cc1	0.989 (inactive)
CN=C1CN(O)C(c2ccccc2)=c2cc(Cl)ccc2=N1	0.988 (inactive)
CC(=O)O[C@H]1CC[C@@]2(C)C(=CCC3C2CC[C@]2(C)C(=O)CCC32)C1 (stereo not given in full)	1.03 (inactive)
c1ccc2[nH]c(-c3cscn3)nc2c1	1 (inactive)
COc1ccc(-c2cc(C(F)F)nn2-c2ccc(S(N)(=O)=O)cc2)cc1F	1 (inactive)
CN(Cc1cnc2nc(N)nc(N)c2n1)c1ccc(C(=O)NC(CCC(=O)O)C(=O)O)cc1 (stereo not given)	0.513 (active)
CC(=O)Oc1cc(C)c2c(c1C(OC(C)=O)OC(C)=O)Oc1c(c(C)c(OC(C)=O)c3c1C(OC(C)=O)OC3=O)OC2=O (stereo not given)	0.969 (inactive)
Nc1nc2c(c(=O)[nH]1)N(C=O)C(CNc1ccc(C(=O)N[C@@H](CCC(=O)O)C(=O)O)cc1)CN2 (stereo not given in full)	0.991 (inactive)
CCOP(=S)(OCC)Oc1ccc2c(C)c(Cl)c(=O)oc2c1	0.985 (inactive)
CC(=O)N[C@@H]1[C@@H](C(O)[C@H](O)CO)O[C@](O)(C(=O)O)C[C@@H]1O (stereo not given in full)	0.998 (inactive)
O=C1O[C@@H](CO)[C@H](O)[C@@H](O)[C@@H]1O	0.999 (inactive)
